- system.tested: Apelin receptor (Homo sapiens)
- assay.explanation: agonists of human apelin receptor APJ, confirmation, cell-based, single concentration, CHO-K1, beta-arrestin, luminescence (AID 2764);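 also: plate controls were DMSO wells for no effect and apelin-13 at 10 nM for full effect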
- measurement.conditions: CHO-K1 APJ PathHunter beta-arrestin, at 20 µM, hits give high values
The list shows a part of the results.
quantity: activation (%)
Just the number please, in %, no unit attached.

Reference set (4 entries):
| molecule | activation [%] |
| --- | --- |
| O=C(CSc1nc(Nc2ccccc2)nc(N2CCOCC2)n1)Nc1cc(Cl)ccc1O | 15.9 |
| CCOc1cc2[nH]c(=S)n(CCCN3CCCC3=O)c(=O)c2cc1OCC | 20.1 |
| COc1ccc(C(=O)O/N=C(\N)Cc2ccc(Cl)cc2Cl)cc1OC | 24.9 |
| CC(=O)N1CCCc2cc(S(=O)(=O)N3CCCC(C(=O)N4CCN(c5cccc(Cl)c5)CC4)C3)ccc21 (stereo not given) | 27.4 |

Notebook: pull reported activation for Apelin receptor (Homo sapiens), entry CCCCCCc1cc2cc(-c3nnc(-c4ccccc4)o3)c(=O)oc2cc1O -0.485
